measured-on: T1, human cholecystokinin-2 receptor (human), P32239
T1 chain: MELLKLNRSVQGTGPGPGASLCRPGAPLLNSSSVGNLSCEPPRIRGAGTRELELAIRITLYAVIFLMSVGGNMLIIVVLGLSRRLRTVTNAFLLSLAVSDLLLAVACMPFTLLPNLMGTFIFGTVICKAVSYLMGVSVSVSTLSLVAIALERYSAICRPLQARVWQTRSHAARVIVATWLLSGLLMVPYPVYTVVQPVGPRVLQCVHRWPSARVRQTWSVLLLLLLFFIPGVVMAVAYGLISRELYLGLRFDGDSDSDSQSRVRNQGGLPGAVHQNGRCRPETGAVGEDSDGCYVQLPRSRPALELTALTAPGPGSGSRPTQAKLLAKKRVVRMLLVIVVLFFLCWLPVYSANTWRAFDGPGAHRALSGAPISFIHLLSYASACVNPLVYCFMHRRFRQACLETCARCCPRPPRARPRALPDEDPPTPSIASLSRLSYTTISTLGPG
procedure-details: cell-based or functional assay
Starred links: 1 amine or outer side, 2 acyl side, 3 side chain; linkers in the order of their positions; H or OH if unused. Non-standard residues stand in square brackets, D forms with d. *: point of attachment. sY = N[C@@H](Cc1ccc(OS(=O)(=O)O)cc1)C(=O)O; C18 diacid = O=C(O)CCCCCCCCCCCCCCCCC(=O)*; γGlu = O=C(O)[C@H](CCC(=O)[*:2])N[*:1]; NMeF = CN[C@@H](Cc1ccccc1)C(=O)O; AEEA = NCCOCCOCC(=O)O
quantity-kind: log10 of EC50 (CCK-2R) (log10 of the value in µM)

{"columns": ["binder", "log10 of EC50 (CCK-2R)"],
 "data": [
  ["{C18 diacid-γGlu-AEEA-AEEA}-D[sY]LGWI[DMeAsp][NMeF]-NH2", -0.59],
  ["{C18 diacid-γGlu-AEEA-AEEA}-D[sY]LGWV[DMeAsp][NMeF]-NH2", -0.14],
  ["{C18 diacid-γGlu-AEEA-AEEA}-D[sY]LGWL[DMeAsp][NMeF]-NH2", -1.10],
  ["{C18 diacid-γGlu-AEEA-AEEA}-D[sY]LGWA[DMeAsp][NMeF]-NH2", -0.06],
  ["{C18 diacid-γGlu-AEEA-AEEA}-D[sY]LGWP[DMeAsp][NMeF]-NH2", -0.82]
]}
